TARGET UNDER TEST: Alpha-bungarotoxin (Bungarus multicinctus) (UniProt P60615)
Sequence (P60615 whole entry, looked up): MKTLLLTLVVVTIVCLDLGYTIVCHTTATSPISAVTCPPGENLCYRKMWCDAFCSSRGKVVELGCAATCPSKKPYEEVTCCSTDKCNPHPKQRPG
PROTOCOL SUMMARY: alpha-bungarotoxin binders on microarray, profiling panel, artefact control for SMM control protein annotation, biochemical, small-molecule microarray, Alexa647 label, 635/667 nm fluorescence (AID 1117)
SETTINGS: alpha-BTX-A647 binding fluorescence, higher = more signal
Entry flag: Satisfied if composite z-score reaches 0.5; Not satisfied if it does not.

C[C@@H]1CC[C@H]2C(=O)O[C@@H](COc3ccc(C(C)(C)C)cc3)CN2[C@@H]1c1ccc(Br)cc1 ... Not satisfied
CCCNC(=O)OC[C@H]1O[C@H](CCON=C(C)CCN2CCCc3nc(C)c(C)cc32)C=C[C@@H]1Oc1ccc(OC)cc1 ... Satisfied
CC(=O)OC[C@H]1O[C@H](C#Cc2ccccc2)C=C[C@@H]1OC(C)=O ... Not satisfied
CCOC(=O)NN=C1C[C@@H](O)[C@@H](O)[C@@H]2[C@@H]3C(=O)N([C@@H](C)c4ccccc4)C(=O)[C@@H]3CC[C@H]12 ... Not satisfied

Request: Determine whether measured composite z-score meets or exceeds 0.5 for COC(=O)CC=C[C@@H](C)[C@@H](C=NO[C@@H](C)c1cc(-c2c(C)cc(C)cc2C)no1)NS(=O)(=O)c1ccc(C)cc1
Response: Not satisfied

---

PROTOCOL SUMMARY: basal RPMI8226 mitochondrial membrane potential changes, profiling panel, cell-based, JC-1 fluorescence, 24 h, 100 nL compound (AID 1169); further: test concentration not given here
SETTINGS: RPMI8226 myeloma, JC-1 mitochondrial potential fluorescence, higher = more signal
Please provide measured z-score for the entries that follow.
One number for each entry.

Example entries begin here.
CC(CCC(=O)OC[C@H]1O[C@H](C#Cc2ccccc2)C=C[C@@H]1Oc1ccc(C)cc1)=NO[C@H](C)c1cn([C@H](CO)Cc2ccccc2)nn1 ... -0.712
CCC(=O)[C@@]1(O)C(=O)N2C(=C3C(=O)OCC[C@@H]31)N(Cc1ccccc1)C(C)=C(C(=O)OC)[C@H]2c1ccccc1 ... -0.179
C#CCCCON=C1[C@H]2CCn3c(=O)n(C)c(=O)n3[C@H]2[C@H](O)[C@@H]2O[C@H]12 ... -0.253

Let's switch to this molecule now.
Request: # z-score lookup, item C[C@@H](c1ccccc1)N1C(=O)[C@H]2[C@H]3[C@H](O)[C@H](O)CC(=NO[C@@H]4O[C@H](CO)[C@@H](O)[C@H](O)[C@H]4O)[C@H]3CC[C@H]2C1=O
Response: 0.0338

---

PROTOCOL SUMMARY: small-molecule microarray binders of probe aNog, primary screen, biochemical, biotinylated probe, 635/667 nm fluorescence (AID 1115);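 further: probe is biotinylated aNog protein used at 0.15 µg/mL for 1 h at 4 C; z-score combines 667 nm fluorescence of each spot with its signal to noise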
SETTINGS: higher = more signal
Entry flag: 1 if composite z-score reaches 0.05; -1 if it does not.

Answered cases to consult:
CCOC(=O)[C@H](CC(C)C)NC(=O)CCC1CC(OC(=O)NCc2cccc3ccccc23)CC2(CCCC(COC(=O)NCc3cccc(C(F)(F)F)c3)O2)O1 (some centres not stated) ... -1
CC(=O)O[C@H]1C2=CO[C@H](C)[C@H]3[C@H]4C5=C([C@H](O)[C@H]6O[C@H]6C5=O)[C@H](OC4C)[C@@]23C(=O)[C@@H]2O[C@@H]21 (some centres not stated) ... 1

Request: Determine whether measured composite z-score meets or exceeds 0.05 for Cc1cc2c(nc1C)CCCCN2CC(C)ON=C1[C@H]2CCn3c(=O)n(-c4ccccc4)c(=O)n3[C@H]2[C@H](O)[C@@H]2O[C@H]12 (some centres not stated)
Response: 1

Request: Determine whether measured composite z-score meets or exceeds 0.05 for CO[C@@H]1COC(=O)[C@@H](C)COC(=O)[C@@H](C)NC(=O)CC=C[C@@H]1C
Response: 1

Request: Determine whether measured composite z-score meets or exceeds 0.05 for COc1ccc(O[C@H]2C=C[C@@H](c3ccccc3)O[C@@H]2CON=C(C)CCN2CCc3nc(-c4ccccc4)c(-c4ccccc4)cc3C2)cc1
Response: -1

Request: Determine whether measured composite z-score meets or exceeds 0.05 for CCc1cc2c(nc1CC)CCN(CCC(C)=NOC[C@H]1O[C@H](c3ccccc3)C=C[C@@H]1Oc1ccc(OC)cc1)C2
Response: -1

Request: Determine whether measured composite z-score meets or exceeds 0.05 for COc1ccc(O[C@H]2C=C[C@@H](c3ccccc3)O[C@@H]2COC(=O)CCC(C)=NOC(C)CN2CCCc3nc(C)c(C)cc32)cc1 (some centres not stated)
Response: 1

---

TARGET UNDER TEST: Carbonic anhydrase 2 (Homo sapiens) (UniProt P00918)
PROTOCOL SUMMARY: CAII small-molecule binders, profiling panel, biochemical, small-molecule microarray, Alexa647-labelled CAII (AID 1122)
SETTINGS: CAII-A647 binding fluorescence, higher = more signal
MEASUREMENT KIND: composite z-score
Numbers only.

COC(=O)CC=C[C@@H](C)[C@@H]1C=C[C@H](O)[C@@H](CO)O1 ... -0.184
CO[C@H]1COC(=O)CCC[C@@H](C)[C@H](OC)COC(=O)[C@@H](C)NC(=O)CC=C[C@@H]1C ... -0.716
O=C1C[C@@H](O)[C@@H](O)[C@@H]2[C@@H]3C(=O)N(C[C@@H]4CCCO4)C(=O)[C@@H]3CC[C@@H]12 ... -0.0061
CO[C@H](C1CCCCC1)[C@H](C)C=CCC(=O)OCCCc1ccccc1 ... -0.3
COC(=O)CC=C[C@@H](C)[C@H](OCc1cccc(-c2ccccc2)c1)C1CCCCC1 ... 0.942
O=C(NN=C1C[C@@H](O)[C@@H](O)[C@@H]2[C@@H]3C(=O)N(C4CCCCC4)C(=O)[C@@H]3CC[C@H]12)OCc1ccccc1 ... 0.0928

Please go through the list and note composite z-score for each compound.
1. CO[C@@H]1COC(=O)[C@@H](C)COC(=O)[C@@H](C)NC(=O)CC=C[C@@H]1C
2. CCOC(=O)[C@H](Cc1ccccc1)NC(=O)CCC1CC(OC(=O)NCc2cccc3ccccc23)CC2(CCCC(COC(=O)NCC(c3ccccc3)c3ccccc3)O2)O1 (stereo partly drawn)

Response:
1. -0.425
2. 0.394

---

PROTOCOL SUMMARY: fission yeast growth modulation, primary screen, strain 972, OD600, 24 h, no modulator (AID 1090);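 further: basal condition with compound alone and no growth modifier present; test concentration not given here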
SETTINGS: S. pombe 972 growth, higher = more signal, called active from +8 up or from −8 down
MEASUREMENT KIND: z-score
Answers are plain numbers.

Example entries begin here.
CO[C@H]1COC(=O)CC=C[C@@H](C)[C@H](OC)COC(=O)[C@@H]2CCCN2C(=O)CC=C[C@@H]1C ... -0.0931
C=CC[C@@H]1C=C[C@H](ON=C[C@@H](C)[C@H](OCc2ccccc2)C(C)C)[C@@H](CO)O1 ... -3.98
O=C1[C@H]2[C@H]3[C@H](O)[C@H](O)CC(=NOCc4ccccc4)[C@@H]3CC[C@H]2C(=O)N1Cc1ccc2c(c1)OCO2 ... 0.437

Request: # z-score lookup, item COc1cccc([C@H]2Oc3ccc(OC)cc3C(=NO[C@H](C)c3cn([C@H](CO)Cc4ccccc4)nn3)[C@@H]2O)c1
Response: 0.226

---

Please provide measured composite z-score for the entries that follow.
PROTOCOL SUMMARY: small-molecule microarray binders of probe aLefty2, primary screen, biochemical, biotinylated probe, 635/667 nm fluorescence (AID 1094);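 further: score merges spot fluorescence near 667 nm with spot signal-to-noise ratio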
SETTINGS: higher = more signal
Give bare numbers.

CCCNC(=O)OC[C@H]1O[C@H](CCON=C(C)C)C=C[C@@H]1Oc1ccc(OC)cc1 ... 0.0472
CON=Cc1ccc(C(=O)N2[C@H](c3ccc(C)cc3)[C@@H](C)CC[C@H]2C(=O)OC)cc1 ... -0.293
CCOC(=O)[C@H](Cc1ccccc1)NC(=O)CCC1CC(OC(=O)NCc2cccc3ccccc23)CC2(CCCC(COC(=O)NCC(c3ccccc3)c3ccccc3)O2)O1 (some centres not stated) ... -0.147
COC(=O)[C@@H]1CC[C@H](C)[C@@H](c2ccc(C)cc2)N1C(=O)c1ccc(C=NO[C@H](C)c2cn([C@H](CO)Cc3ccccc3)nn2)cc1 ... 0.0943
COCCNC(=O)OCC1CCCC2(CC(OC(=O)NCc3ccc4c(c3)OCO4)CC(CCC(=O)N[C@@H](C)C(=O)OC)O2)O1 (some centres not stated) ... -0.161
CCc1cc2c(nc1CC)CCN(CCC(C)=NOC[C@H]1O[C@H](c3ccccc3)C=C[C@@H]1Oc1ccc(OC)cc1)C2 ... -0.164

Let's switch to this compound now.
Request: # composite z-score lookup, item CCOC(=O)[C@H](CC(C)C)NC(=O)CCC1CC(OC(=O)NCCc2ccc(F)cc2)CC2(CCCC(COC(=O)NCCOc3ccccc3)O2)O1 (some centres not stated)
Response: -0.0965
